Tested on: L6 rat myoblasts
METHOD: OCR Seahorse assay (oxygen consumption rate, mitochondrial uncoupling)
CONDITION LABEL: Rattus norvegicus, L6
REPORTED METRIC: pEC50
Numbers only, as −log10 of the molar value.

Recorded results for 2 compounds are shown here.
- COMPOUND: "Oc1c(Nc2ccc(C(F)(F)F)cc2)cnc2nonc12 [7s]"
  pEC50: 4.46
- COMPOUND: "Oc1c(Nc2cccc(C(F)(F)F)c2)cnc2nonc12 [7r]"
  pEC50: 4.66

Hi team, please reply with pEC50 for each item in this list.
1. Oc1c(Nc2ccc(F)cc2F)cnc2nonc12 [7u]
2. Oc1c(Nc2ccc(-c3cccc(F)c3)cc2)cnc2nonc12 [7al]

[4.40, 5.92]

Hi team, please reply with pEC50 for each item in this list.
1. Oc1c(Nc2cccc(F)c2)cnc2nonc12 [7n]
2. Oc1c(-c2cccc(C(F)(F)F)c2)cnc2nonc12 [9d]

1: 4.29; 2: 4.59

----------
System: L6 rat myoblasts
METHOD: OCR Seahorse assay (oxygen consumption rate, mitochondrial uncoupling)
CONDITION LABEL: Rattus norvegicus, L6
REPORTED METRIC: pEC50
Numbers only, as −log10 of the molar value.

Recorded results for 3 compounds are shown here.
- COMPOUND: "Oc1c(-c2cccs2)cnc2nonc12 [9g]"
  pEC50: 4.40
- COMPOUND: "Oc1c(Nc2cc(F)ccc2C(F)(F)F)cnc2nonc12 [7af]"
  pEC50: 4.60
- COMPOUND: "Cc1ccc(Nc2cnc3nonc3c2O)cc1 [7b]"
  pEC50: 4.31

Hi team, please reply with pEC50 for each item in this list.
1. Oc1c(Nc2ccc(-c3cccc(C(F)(F)F)c3)cc2)cnc2nonc12 [7an]
2. Oc1c(-c2cccc(Cl)c2)cnc2nonc12 [9c]
3. Oc1c(Nc2ccccc2)cnc2nonc12 [7a]

1. 6.30
2. 4.60
3. 4.23

----------
Tested on: L6 rat myoblasts
METHOD: OCR Seahorse assay (oxygen consumption rate, mitochondrial uncoupling)
CONDITION LABEL: L6 myoblasts
REPORTED METRIC: uncoupling (OCR) activity in words

Recorded results for 4 compounds are shown here.
- COMPOUND: "Oc1c(Nc2ccc(-c3ccccc3F)cc2)cnc2nonc12 [7ak]"
  EXPERIMENTAL SYSTEM: "L6 rat myoblasts"
  REPORTED METRIC: "uncoupling (OCR) activity in words"
  OBSERVED: "not tolerated"
- COMPOUND: "Oc1c(-c2ccc(C(F)(F)F)nc2)cnc2nonc12 [7l]"
  EXPERIMENTAL SYSTEM: "L6 rat myoblasts"
  REPORTED METRIC: "uncoupling (OCR) activity in words"
  OBSERVED: "inactive"
- COMPOUND: "Oc1c(-c2ccc(-c3ccc(F)cc3)cc2)cnc2nonc12 [9h]"
  EXPERIMENTAL SYSTEM: "L6 rat myoblasts"
  REPORTED METRIC: "uncoupling (OCR) activity in words"
  OBSERVED: "inactive"
- COMPOUND: "Oc1c(Nc2ccc(F)nc2)cnc2nonc12 [7k]"
  EXPERIMENTAL SYSTEM: "L6 rat myoblasts"
  REPORTED METRIC: "uncoupling (OCR) activity in words"
  OBSERVED: "inactive"

Next, consider the following compound.
# lookup: uncoupling (OCR) activity in words of Oc1c(Nc2ccc(-c3ccc(C(F)(F)F)cc3)cc2)cnc2nonc12 [7aq]
not tolerated

----------
Task for the reader: assign each of the following compounds its reported pEC50.
System: L6 rat myoblasts
METHOD: OCR Seahorse assay (oxygen consumption rate, mitochondrial uncoupling)
CONDITION LABEL: Rattus norvegicus, L6
Answers are plain numbers, as −log10 of the molar value.

Recorded results for 3 compounds are shown here.
- COMPOUND: "Oc1c(Nc2c(F)cccc2F)cnc2nonc12 [7w]"
  pEC50: 4.28
- COMPOUND: "Oc1c(Nc2ccccc2Cl)cnc2nonc12 [7p]"
  pEC50: 4.57
- COMPOUND: "Oc1c(Nc2cccc(Cl)c2F)cnc2nonc12 [7aa]"
  pEC50: 4.49

Hi team, please reply with pEC50 for each item in this list.
1. Oc1c(Nc2c(F)cccc2C(F)(F)F)cnc2nonc12 [7ad]
2. Oc1c(-c2ccc(Cl)cc2)cnc2nonc12 [9e]
3. Oc1c(Nc2ccc(-c3ccc(F)cc3)cc2)cnc2nonc12 [7ao]

4.55
4.92
5.77

----------
METHOD: in vivo
CONDITION LABEL: male, C57BL/6, mouse, plasma, po, 10 mg/kg
REPORTED METRIC: half-life at 24 h (h)
Give bare numbers, in h.

Hi team, please reply with half-life at 24 h for each item in this list.
1. Oc1c(Nc2ccc(-c3ccc(Cl)cc3)cc2)cnc2nonc12
2. Oc1c(Nc2ccc(-c3cccc(Cl)c3)cc2)cnc2nonc12
3. Oc1c(Nc2ccc(-c3ccc(F)cc3)cc2)cnc2nonc12
4. Oc1c(Nc2ccc(-c3cccc(F)c3)cc2)cnc2nonc12

1: 1.8; 2: 2; 3: 0.9; 4: 0.9

----------
Task for the reader: assign each of the following compounds its reported Cmax at 24 h.
METHOD: in vivo
CONDITION LABEL: male, C57BL/6, mouse, plasma, po, 10 mg/kg

- COMPOUND: "Oc1c(Nc2ccc(-c3cccc(F)c3)cc2)cnc2nonc12 [7al]"
  OBSERVED: "4 µM"

Hi team, please reply with Cmax at 24 h for each item in this list.
1. Oc1c(Nc2ccc(-c3ccc(F)cc3)cc2)cnc2nonc12 [7ao]
2. Oc1c(Nc2ccc(-c3cccc(Cl)c3)cc2)cnc2nonc12 [SHO1122147]
3. Oc1c(Nc2ccc(-c3ccc(Cl)cc3)cc2)cnc2nonc12 [7ap]

1. 6 µM
2. 35 µM
3. 4 µM

----------
System: L6 rat myoblasts
METHOD: OCR Seahorse assay (oxygen consumption rate, mitochondrial uncoupling)
CONDITION LABEL: Rattus norvegicus, L6
Mark each entry true if its EC50 sits below 30 µM, and false for all others.

Please review the entries below; each comes with its answer.
- INPUT SMILES: "Oc1c(Nc2ccccc2F)cnc2nonc12"
  ASSIGNED CATEGORY: "false"
- INPUT SMILES: "Oc1c(-c2ccccc2F)cnc2nonc12"
  ASSIGNED CATEGORY: "true"

Lab note: EC50 threshold 30 µM. Does this compound come in strictly under it? Oc1c(Nc2ccc(-c3cc(C(F)(F)F)cc(C(F)(F)F)c3)cc2)cnc2nonc12
false

Lookup Oc1c(Nc2ccc(F)c(F)c2F)cnc2nonc12
false

----------
Test system: L6 rat myoblasts
METHOD: OCR Seahorse assay (oxygen consumption rate, mitochondrial uncoupling)
CONDITION LABEL: Rattus norvegicus, L6
REPORTED METRIC: pEC50
One number for each entry, as −log10 of the molar value.

- INPUT SMILES: "Oc1c(Nc2ccc(SC(F)(F)F)cc2)cnc2nonc12"
  pEC50: 5.22
- INPUT SMILES: "Oc1c(Nc2ccc(-c3ccc(C(F)(F)F)nc3)cc2)cnc2nonc12"
  pEC50: 5.15
- INPUT SMILES: "Oc1c(Nc2ccc(F)c(F)c2)cnc2nonc12"
  pEC50: 4.20
- INPUT SMILES: "Oc1c(Nc2cccc(F)c2F)cnc2nonc12"
  pEC50: 4.19
- INPUT SMILES: "Oc1c(Nc2ccc3ccccc3c2)cnc2nonc12"
  pEC50: 4.89

Hi team, please reply with pEC50 for each item in this list.
1. Oc1c(Nc2cccc(C(F)(F)F)c2F)cnc2nonc12
2. Oc1c(Nc2cc(C(F)(F)F)ccc2F)cnc2nonc12
3. Oc1c(Nc2ccc(-c3ccccc3)cc2F)cnc2nonc12

4.37
4.96
5.70

Hi team, please reply with pEC50 for each item in this list.
1. Oc1c(Nc2ccc(-c3ccc(Cl)cc3)cc2)cnc2nonc12
2. Oc1c(Nc2c(F)c(F)c(F)c(F)c2F)cnc2nonc12
3. Oc1c(Nc2ccccc2C(F)(F)F)cnc2nonc12
4. Oc1c(Nc2cc(C(F)(F)F)c(F)cc2F)cnc2nonc12
5. Oc1c(Nc2cc(F)cc(C(F)(F)F)c2)cnc2nonc12
6. Oc1c(Nc2ccc(-c3cccc(Cl)c3)cc2)cnc2nonc12
7. Oc1c(Nc2cc(F)ccc2F)cnc2nonc12

1: 6.05; 2: 4.74; 3: 4.47; 4: 4.40; 5: 4.40; 6: 5.44; 7: 4.19

Hi team, please reply with pEC50 for each item in this list.
1. Oc1c(-c2ccccc2Cl)cnc2nonc12
2. CCc1ccc(Nc2cnc3nonc3c2O)cc1
3. CC(C)(C)c1ccc(Nc2cnc3nonc3c2O)cc1

4.07
4.85
5.70
